System: chamomile (scentless chamomile, Matricaria inodora)
Assay: Test D controlled growth environment herbicide test, pre- and postemergence
Type: in vivo
Details: postemergence, 62 g ai/ha; scale 0 to 100, 0 no effect, 100 complete control
metric-name: Plant response rating, Chamomile
Give a plain numeric answer without units written out.

query: Entry under review: Cc1ccc2ccccc2c1-c1c(OC(=O)OC(C)C)c(C)nn(C)c1=O [Compound 72] . Reported Plant response rating, Chamomile?
result: 80

query: Entry under review: Cc1nn(C)c(=O)c(-c2c(C)sc3c(C)cc(Cl)cc23)c1O [Compound 35] . Reported Plant response rating, Chamomile?
result: 100

query: Entry under review: CC(=O)Oc1c(C)nn(C)c(=O)c1-c1c(C)sc2ccc(Cl)cc12 [Compound 108] . Reported Plant response rating, Chamomile?
result: 85

query: Entry under review: CCCC(=O)Oc1c(C)nn(C)c(=O)c1-c1c(C)sc2ccc(C)cc12 [Compound 105] . Reported Plant response rating, Chamomile?
result: 85

query: Entry under review: Cc1ccc2ccccc2c1-c1c(O)c(Br)nn(C)c1=O [Compound 23] . Reported Plant response rating, Chamomile?
result: 85

query: Entry under review: Cc1ccc2sc(Br)c(-c3c(O)c(C)nn(C)c3=O)c2c1 [Compound 79] . Reported Plant response rating, Chamomile?
result: 95

----------
Test system: kochia (Kochia scoparia)
Test: Test A greenhouse herbicide test, pre- and postemergence
Format: in vivo
Conditions: Preemergence, 500 g ai/ha; 0 to 100 scale where 0 is no effect and 100 is complete control
metric-name: Plant response rating, Kochia
Give a plain numeric answer without units written out.

query: Entry under review: `CCC(=O)Oc1c(Br)nn(C)c(=O)c1-c1c(C)ccc2ccccc12` . Reported Plant response rating, Kochia?
result: 100

query: Entry under review: `Cc1nn(C)c(=O)c(-c2cccc3ccc(I)cc23)c1O` . Reported Plant response rating, Kochia?
result: 40

query: Entry under review: `Cc1nn(C)c(=O)c(-c2c(C)sc3ccc(C(F)(F)F)cc23)c1O` . Reported Plant response rating, Kochia?
result: 30

query: Entry under review: `CCC(=O)Oc1c(C)nn(C)c(=O)c1-c1ccc(F)c2ccccc12` . Reported Plant response rating, Kochia?
result: 100

query: Entry under review: `CCC(=O)Oc1c(OC)nn(C)c(=O)c1-c1c(C)sc2ccc(Cl)cc12` . Reported Plant response rating, Kochia?
result: 20

query: Entry under review: `Cc1ccc2ccccc2c1-c1c(OC(=O)OC(C)C)c(C)nn(C)c1=O` . Reported Plant response rating, Kochia?
result: 100

query: Entry under review: `Cc1sc2ccc(C(F)(F)F)cc2c1-c1c(O)c(Cl)nn(C)c1=O` . Reported Plant response rating, Kochia?
result: 30

query: Entry under review: `Cc1nn(C)c(=O)c(-c2cccc3ccc(OC(F)F)cc23)c1O` . Reported Plant response rating, Kochia?
result: 30

----------
System: ryegrass, Italian (Italian ryegrass, Lolium multiflorum)
Assay: Test A greenhouse herbicide test, pre- and postemergence
Format: in vivo
Settings: Preemergence, 125 g ai/ha; 0 to 100 scale where 0 is no effect and 100 is complete control
Text: […]
Decision: Ryegrass, Italian plant response rating compared against 60; not below it gives MET, below it gives NOT MET.

query: Is it the case that `Cc1ccc2oc(C)c(-c3c(O)c(C(C)C)nn(C)c3=O)c2c1` has Ryegrass, Italian plant response rating reaching or exceeding 60?
result: NOT MET

query: Is it the case that `CC(=O)Oc1c(C)nn(C)c(=O)c1-c1c(C)cc(C)c2ccccc12` has Ryegrass, Italian plant response rating reaching or exceeding 60?
result: MET

query: Is it the case that `COC(=O)Oc1c(OC)nn(C)c(=O)c1-c1c(C)sc2ccc(Cl)cc12` has Ryegrass, Italian plant response rating reaching or exceeding 60?
result: MET

query: Is it the case that `Cc1nn(C)c(=O)c(-c2c(C)sc3ccc(Br)cc23)c1O` has Ryegrass, Italian plant response rating reaching or exceeding 60?
result: MET

query: Is it the case that `COc1nn(C)c(=O)c(-c2c(C)ccc3ccc(C)cc23)c1O` has Ryegrass, Italian plant response rating reaching or exceeding 60?
result: NOT MET

query: Is it the case that `Cc1nn(C)c(=O)c(-c2c(C)n(C)c3ccc(Cl)cc23)c1O` has Ryegrass, Italian plant response rating reaching or exceeding 60?
result: NOT MET

query: Is it the case that `CC(=O)Oc1c(Cl)nn(C)c(=O)c1-c1c(C)sc2ccc(Cl)cc12` has Ryegrass, Italian plant response rating reaching or exceeding 60?
result: MET

query: Is it the case that `CCc1nn(C)c(=O)c(-c2c(C)oc3ccc(Cl)cc23)c1O` has Ryegrass, Italian plant response rating reaching or exceeding 60?
result: NOT MET

query: Is it the case that `Cc1nn(C)c(=O)c(-c2c(Cl)n(C)c3ccccc23)c1O` has Ryegrass, Italian plant response rating reaching or exceeding 60?
result: NOT MET

query: Is it the case that `Cc1nn(C)c(=O)c(-c2cccc3ccc(C4CC4)cc23)c1O` has Ryegrass, Italian plant response rating reaching or exceeding 60?
result: NOT MET

query: Is it the case that `Cc1ccc2sc(Br)c(-c3c(O)c(C)nn(C)c3=O)c2c1` has Ryegrass, Italian plant response rating reaching or exceeding 60?
result: MET

query: Is it the case that `Cc1ccc2sc(C)c(-c3c(OC(=O)OC(C)C)c(C)nn(C)c3=O)c2c1` has Ryegrass, Italian plant response rating reaching or exceeding 60?
result: MET

query: Is it the case that `CCC(=O)Oc1c(OC)nn(C)c(=O)c1-c1c(C)sc2ccc(Cl)cc12` has Ryegrass, Italian plant response rating reaching or exceeding 60?
result: MET
